Target: human recombinant ETA receptors (Homo sapiens)
Sequence (P25101 21-427): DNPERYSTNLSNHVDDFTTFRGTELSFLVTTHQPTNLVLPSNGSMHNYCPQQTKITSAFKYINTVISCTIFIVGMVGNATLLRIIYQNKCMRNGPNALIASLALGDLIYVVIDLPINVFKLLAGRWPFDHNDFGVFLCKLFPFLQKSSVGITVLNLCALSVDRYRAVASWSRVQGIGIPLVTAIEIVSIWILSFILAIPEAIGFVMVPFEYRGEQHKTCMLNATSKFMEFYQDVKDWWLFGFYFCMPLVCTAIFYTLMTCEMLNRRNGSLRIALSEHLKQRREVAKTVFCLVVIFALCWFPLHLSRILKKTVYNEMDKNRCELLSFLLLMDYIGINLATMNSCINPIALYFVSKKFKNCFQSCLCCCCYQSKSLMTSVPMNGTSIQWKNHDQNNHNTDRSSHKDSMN
Test: Inhibition of [125I]ET-1 binding to membranes from CHO cells carrying human ETA receptors
Details: CHO cell membranes, 8 pM [125I]ET-1, 2 h at 20° C.
Mark each entry satisfied if its IC50 sits below 10 nM, and not satisfied for all others.

- CS(=O)(=O)c1nc(NS(=O)(=O)/C=C/c2ccccc2)c(-c2ccccc2)c(OCCOc2ncc(Br)cn2)n1: satisfied
- O=S(=O)(/C=C/c1ccccc1)Nc1nc(-c2ccncc2)nc(OCCOc2ncc(Br)cn2)c1-c1ccc(Cl)cc1: not satisfied
- COc1ccccc1Oc1c(NS(=O)(=O)/C=C/c2cccs2)nc(-c2ncccn2)nc1OCCOc1ncccn1: not satisfied
- Cc1ccc(-c2c(NS(=O)(=O)/C=C/c3ccc(Cl)cc3)ncnc2OCCOc2ncc(Br)cn2)cc1: not satisfied
- COc1ccc(Cl)c(Oc2c(NS(=O)(=O)/C=C/c3ccccc3)nc(-c3ccncc3)nc2OCCOc2ncc(Br)cn2)c1: not satisfied

###

Biological target: human recombinant ETB receptors (Homo sapiens, UniProt P24530)
Construct: expressed in transfected cells; host or cells: CHO cells (microsomal membranes)
Sequence (P24530 27-442): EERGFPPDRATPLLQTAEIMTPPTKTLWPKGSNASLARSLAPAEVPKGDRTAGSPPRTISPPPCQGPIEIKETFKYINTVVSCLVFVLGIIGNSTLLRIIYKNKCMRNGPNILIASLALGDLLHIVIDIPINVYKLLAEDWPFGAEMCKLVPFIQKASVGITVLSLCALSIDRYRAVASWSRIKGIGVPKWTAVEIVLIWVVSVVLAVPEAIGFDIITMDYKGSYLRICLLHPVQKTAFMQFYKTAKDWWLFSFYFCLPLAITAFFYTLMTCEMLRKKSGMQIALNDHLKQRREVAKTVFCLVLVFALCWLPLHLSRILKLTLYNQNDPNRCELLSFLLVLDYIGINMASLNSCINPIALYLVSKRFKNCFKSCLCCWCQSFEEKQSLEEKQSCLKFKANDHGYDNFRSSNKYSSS
Assay: Inhibition of [125I]ET-1 binding to membranes from CHO cells carrying human ETB receptors
pIC50: −log10 of the molar value.
Decision: pIC50 compared against 6; not below it gives Condition met, below it gives Condition not met.

• Cc1ccc(-c2c(NS(=O)(=O)/C=C/c3cccs3)ncnc2OCCOc2ccc(C(F)(F)F)cn2)cc1 = Condition met
• C/C(=C\c1ccccc1)S(=O)(=O)Nc1ncnc(OCCOc2ncc(Br)cn2)c1-c1ccc(C)cc1 = Condition not met
• COc1ccccc1Oc1c(NS(=O)(=O)/C=C/c2ccccc2)nc(N2CCOCC2)nc1OCCOc1ncc(SC)cn1 = Condition met
• COc1ccccc1Oc1c(NS(=O)(=O)/C=C/c2ccccc2)nc(N2CCOCC2)nc1OCCOc1ncccn1 = Condition met
